B1: Hairpin Ribozyme (parent)
chain: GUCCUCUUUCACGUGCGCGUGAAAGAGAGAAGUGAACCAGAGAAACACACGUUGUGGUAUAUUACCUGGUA

# Variants of: B1
# MEASUREMENT_PROTOCOL: self-cleavage, relative activity (ratio to wild type); higher = more cleavage; co-transcriptional
REPORTED_PROPERTY: self-cleavage
No unit in the answer, only the number.

# query: self-cleavage of entry C3G G68C 0.188

# query: self-cleavage of entry G1U U70G 0.0694

# query: self-cleavage of entry U5C U7G 0.365

# query: self-cleavage of entry G13A G40U 0.129

# query: self-cleavage of entry G29A A61C 0.163
